B1: library; numbered along this chain (parent)
chain: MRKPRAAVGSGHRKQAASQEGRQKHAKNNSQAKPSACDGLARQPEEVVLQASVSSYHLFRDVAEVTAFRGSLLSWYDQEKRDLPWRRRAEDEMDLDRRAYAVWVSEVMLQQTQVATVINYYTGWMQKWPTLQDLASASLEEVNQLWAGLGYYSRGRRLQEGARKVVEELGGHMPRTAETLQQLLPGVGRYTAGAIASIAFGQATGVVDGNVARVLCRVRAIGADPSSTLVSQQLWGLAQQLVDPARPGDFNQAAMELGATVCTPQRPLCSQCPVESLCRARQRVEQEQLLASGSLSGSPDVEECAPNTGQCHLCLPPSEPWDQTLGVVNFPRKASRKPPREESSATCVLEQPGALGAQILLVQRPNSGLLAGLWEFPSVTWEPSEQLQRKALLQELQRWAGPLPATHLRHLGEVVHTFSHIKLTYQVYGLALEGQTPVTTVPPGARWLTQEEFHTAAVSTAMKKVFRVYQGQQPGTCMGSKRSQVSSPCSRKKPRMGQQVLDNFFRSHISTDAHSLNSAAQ

- Variants of: B1
- TEST METHOD NOTES: 8OG:A repair function score (normalized; synonymous = 0, nonsense = -1) (normalized log-likelihood score); higher = more repair activity (WT-like);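 note: cells sorted at 72 h after reporter transfection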
- CONDITION DESCRIPTION: with 8OG:A DNA repair reporter (GFP) in HEK-293 MUTYH KO cells
MEASURED ENDPOINT: 8OG:A repair function score
In your answer, state the number alone without any accompanying words.

> print(dat)
   change            measured.endpoint  test.result
1   T263F  8OG:A repair function score      -0.0981
2   A199I  8OG:A repair function score       -0.536
3    K80R  8OG:A repair function score      -0.0152
4   V107D  8OG:A repair function score        -1.44
5   Q126E  8OG:A repair function score       0.0677

### Prompt # get_value(readout='8OG:A repair function score', item= `E90G` )
### Response 0.00689

### Prompt Then `L72Q` ?
### Response -1.44

### Prompt Same again, this time with `P273M`
### Response -1.05
